- assay_name: in vivo
- condition_details: callithrix, serum, iv
- Description: Serum T1/2 in marmosets (IV dose)
assay_readout: half-life (h)
Just the number please, in h, no unit attached.

Fill in: half-life of CC(C)(O/N=C(\C(=O)N[C@@H]1C(=O)N2C(C(=O)O)=C(CNC(=O)c3cc(Cl)c(O)c(O)c3Cl)CS[C@H]12)c1csc(N)n1)C(=O)O is ___ 8.2

Do the same for CC(C)(O/N=C(\C(=O)N[C@@H]1C(=O)N2C(C(=O)O)=C(CNC(=O)c3cc(O)c(O)c(Cl)c3)CS[C@H]12)c1csc(N)n1)C(=O)O please 4.6

Do the same for CC(C)(O/N=C(\C(=O)N[C@@H]1C(=O)N2C(C(=O)O)=C(CNC(=O)c3cc(O)c(O)c([N+](=O)[O-])c3)CS[C@H]12)c1csc(N)n1)C(=O)O please 2.9

----------
- Test system: Enterobacter cloacae
- assay_name: microbe, parasite or virus in culture
- Description: Compound was tested for antimicrobial activity against Enterobacter cloacae constitutive derepressed type I beta-lactamase producer (P99+) strain
Can you tell me MIC for the items I'm about to list?
Just the number please, in µg/mL, no unit attached.

Fill in: MIC of CCO/N=C(\C(=O)N[C@@H]1C(=O)N2C(C(=O)O)=C(CNC(=O)c3cc(O)c(O)c(Br)c3)CS[C@H]12)c1csc(N)n1 is ___ 8

Do the same for CCn1cc(C(=O)NCC2=C(C(=O)O)N3C(=O)[C@@H](NC(=O)/C(=N\OC(C)(C)C(=O)O)c4csc(N)n4)[C@H]3SC2)c(=O)c2cc(O)c(O)cc21 please 0.25

Do the same for CCN(CC1=C(C(=O)O)N2C(=O)[C@@H](NC(=O)/C(=N\OC(C)(C)C(=O)O)c3csc(N)n3)[C@H]2SC1)C(=O)c1cc(O)c(O)c(Br)c1 please 1

Do the same for CC(C)(O/N=C(\C(=O)N[C@@H]1C(=O)N2C(C(=O)O)=C(CNC(=O)c3ccc(O)c(O)c3)CS[C@H]12)c1csc(N)n1)C(=O)O please 16

----------
- assay_name: physchem
- Description: Dissociation constant (pKa)
assay_readout: pKa
# print the numeric value only

Fill in: pKa of CCn1cc(C(=O)NCC2=C(C(=O)O)N3C(=O)[C@@H](NC(=O)/C(=N\OC(C)(C)C(=O)O)c4csc(N)n4)[C@H]3SC2)c(=O)c2c(Cl)c(O)c(O)cc21 is ___ 7

Do the same for CCn1cc(C(=O)NCC2=C(C(=O)O)N3C(=O)[C@@H](NC(=O)/C(=N\OC(C)(C)C(=O)O)c4csc(N)n4)[C@H]3SC2)c(=O)c2cc(O)c(O)cc21 please 7.2

Do the same for CCO/N=C(\C(=O)N[C@@H]1C(=O)N2C(C(=O)O)=C(CNC(=O)c3cc(O)c(O)c(Cl)c3)CS[C@H]12)c1csc(N)n1 please 6.9

Do the same for CC(C)(O/N=C(\C(=O)N[C@@H]1C(=O)N2C(C(=O)O)=C(CNC(=O)c3cc(O)c(O)c(Cl)c3)CS[C@H]12)c1csc(N)n1)C(=O)O please 7

Do the same for CCO/N=C(\C(=O)N[C@@H]1C(=O)N2C(C(=O)O)=C(CNC(=O)c3cc(O)c(O)cc3Br)CS[C@H]12)c1csc(N)n1 please 6.9

The origin of these recorded values is ChEMBL document CHEMBL1125482.
